MEASURED_TARGET: human F508del-CFTR (Homo sapiens, UniProt P13569, DEL508-508)
Sequence (P13569 with tags, fused parts or gaps DEL508-508): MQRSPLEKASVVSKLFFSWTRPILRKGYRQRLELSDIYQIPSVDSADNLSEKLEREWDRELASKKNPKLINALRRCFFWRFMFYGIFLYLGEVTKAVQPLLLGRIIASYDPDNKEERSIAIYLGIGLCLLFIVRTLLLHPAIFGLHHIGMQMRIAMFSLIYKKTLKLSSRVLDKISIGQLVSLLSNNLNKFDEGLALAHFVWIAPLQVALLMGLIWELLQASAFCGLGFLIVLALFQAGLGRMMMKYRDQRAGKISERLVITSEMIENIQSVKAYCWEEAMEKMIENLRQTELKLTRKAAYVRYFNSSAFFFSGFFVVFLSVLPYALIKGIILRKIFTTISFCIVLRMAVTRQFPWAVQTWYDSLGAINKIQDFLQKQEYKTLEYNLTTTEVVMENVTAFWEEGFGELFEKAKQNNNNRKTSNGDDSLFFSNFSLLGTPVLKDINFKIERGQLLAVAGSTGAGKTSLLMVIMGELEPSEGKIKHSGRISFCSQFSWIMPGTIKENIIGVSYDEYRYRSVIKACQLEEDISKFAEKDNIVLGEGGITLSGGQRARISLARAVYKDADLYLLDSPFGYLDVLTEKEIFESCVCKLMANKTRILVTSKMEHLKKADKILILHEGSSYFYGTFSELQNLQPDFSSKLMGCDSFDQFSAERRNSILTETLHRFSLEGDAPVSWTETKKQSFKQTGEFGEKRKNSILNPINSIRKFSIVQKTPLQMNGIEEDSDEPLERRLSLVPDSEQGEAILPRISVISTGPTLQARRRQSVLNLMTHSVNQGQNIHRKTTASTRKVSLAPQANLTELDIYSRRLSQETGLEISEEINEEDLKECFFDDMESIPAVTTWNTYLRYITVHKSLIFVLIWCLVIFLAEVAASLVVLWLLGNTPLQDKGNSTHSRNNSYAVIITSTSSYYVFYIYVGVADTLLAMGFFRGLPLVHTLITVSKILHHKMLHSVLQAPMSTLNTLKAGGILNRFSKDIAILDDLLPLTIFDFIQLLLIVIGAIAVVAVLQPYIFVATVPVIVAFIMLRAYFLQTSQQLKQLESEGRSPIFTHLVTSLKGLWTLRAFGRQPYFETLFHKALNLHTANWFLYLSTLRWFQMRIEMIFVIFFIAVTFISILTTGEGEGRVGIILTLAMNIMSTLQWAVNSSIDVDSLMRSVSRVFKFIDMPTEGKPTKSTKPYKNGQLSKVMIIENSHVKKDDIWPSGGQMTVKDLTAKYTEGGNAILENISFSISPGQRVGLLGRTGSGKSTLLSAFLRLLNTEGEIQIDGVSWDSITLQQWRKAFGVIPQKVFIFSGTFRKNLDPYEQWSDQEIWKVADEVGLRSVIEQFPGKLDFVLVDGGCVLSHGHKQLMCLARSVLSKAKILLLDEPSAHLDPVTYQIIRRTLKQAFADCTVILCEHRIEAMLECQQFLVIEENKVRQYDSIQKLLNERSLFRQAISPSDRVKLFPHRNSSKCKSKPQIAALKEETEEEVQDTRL
METHOD: F508del-CFTR cell surface expression (corrector activity), DiscoveRx ß-galactosidase complementation chemiluminescence assay in recombinant U2OS cell line;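 further: U2OS cells co-expressing ProLink-tagged F508del-CFTR and a membrane-anchored enzyme acceptor, where more surface CFTR restores β-galactosidase activity measured by chemiluminescence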
PARTICULARS: EC50, F508del-CFTR cell surface expression, U2OS cells, 16h compound incubation; geomean of several measurements
The molecules listed here are annotated with their log10(EC50).
Each number you see is log10 of EC50, and the unit inside the log is nM.

Solved cases (4 shown):
# CHEM_SMILES, MEASURED_ENDPOINT, ENDPOINT_RESULT
rows = [
    ("COc1nccc2c1C(=O)N[C@H](C(=O)NCCc1cc(C)no1)CC(=O)N(C)[C@@H](CC(C)C)C(=O)N(C)[C@H](CCOc1ccccc1)C(=O)N[C@H](Cc1ccccc1)CO2", "log10(EC50)", 1.90),
    ("COc1cc(CCNC(=O)[C@@H]2CC(=O)N(C)[C@@H](CC(C)C)C(=O)N(C)[C@@H](Cc3nc(C(F)(F)F)no3)C(=O)N[C@H](Cc3ccccc3)COc3cnc4ccc(F)cc4c3C(=O)N2)on1", "log10(EC50)", 2.21),
    ("Cc1cc2c3c(ccc2cn1)OC[C@@H](Cc1ccccc1)NC(=O)C1(CC1)N(C)C(=O)[C@H](CC(C)C)N(C)C(=O)C[C@@H](C(=O)NCCc1noc(C2CC2)n1)NC3=O", "log10(EC50)", 2.92),
    ("CC(C)C[C@H]1C(=O)N(C)[C@H](Cc2nc(-c3ccc(F)cn3)no2)C(=O)N[C@H](Cc2ccccc2)COc2cnc3ccc(F)cc3c2C(=O)N[C@H](C(=O)NCCc2nc3ncccn3n2)CC(=O)N1C", "log10(EC50)", 3.02),
]

# input for lookup
Query block: # lookup: log10(EC50) of COc1cc(CCNC(=O)[C@@H]2CC(=O)N(C)[C@@H](CC(C)C)C(=O)N(C)[C@H](Cc3nc(-c4ccc(F)cn4)no3)C(=O)N[C@H](Cc3ccccc3)COc3ccc4cnc(C)cc4c3C(=O)N2)on1
Result block: 2.47
